From: ChEMBL document CHEMBL5113468

# Assay protocol: Cytotoxicity against human MT4 cells assessed as reduction in cell viability measured after 5 days by MTT assay
# Assay type: toxicity, cell-based
# Details: time 5 day
CC50 at 120 h: recorded values
Response body: numeric value in µM, unit text excluded.

Compound	Unit string	CC50 at 120 h
Nc1ccc(S(=O)(=O)N2CCN(C(=O)c3cc(O)c(O)c(O)c3)CC2C(=O)Nc2ccccc2)cc1 (stereo not drawn)	µM	19.1
CN(C(=O)C1CN(S(=O)(=O)c2ccc(N)cc2)CCN1C(=O)c1cc(O)c(O)c(O)c1)c1ccccc1 (stereo not drawn)	µM	237
COc1ccc(CNC(=O)C2CN(S(=O)(=O)c3ccc(C#N)cc3)CCN2C(=O)c2cc(O)c(O)c(O)c2)cc1 (stereo not drawn)	µM	21.4

Incoming: What value of CC50 at 120 h has been reported for the following compound? Nc1ccc(S(=O)(=O)N2CCN(C(=O)c3cc(O)c(O)c(O)c3)CC2)cc1
Outgoing: 18

Incoming: Next entry: N#Cc1ccc(S(=O)(=O)N2CCN(C(=O)c3cc(O)c(O)c(O)c3)C(C(=O)NCc3ccc(-c4ccccc4)cc3)C2)cc1 (stereo not drawn)
Outgoing: 7.9

Incoming: Next entry: COc1ccc(CNC(=O)C2CN(C(=O)c3cc(O)c(O)c(O)c3)CCN2S(=O)(=O)c2ccc(N)cc2)cc1 (stereo not drawn)
Outgoing: 20.4

Incoming: Next entry: Nc1ccc(S(=O)(=O)N2CCN(C(=O)c3cc(O)c(O)c(O)c3)CC2C(=O)NCc2cccc3ccccc23)cc1 (stereo not drawn)
Outgoing: 21.6

====

# System name: Human immunodeficiency virus type 1 reverse transcriptase (Human immunodeficiency virus 1, UniProt Q72547)
# Assay protocol: Inhibition of wild-type recombinant HIV-1 group M subtype B BH10 reverse transcriptase RNase-associated RNase H activity expressed in Escherichia coli XL1 blue using 32P-labeled 5'-UUUUUUUUUAGGAUACAUAUGGUUAAAGUAU-3'/5'-ATACTTTAACCATATGTATCC-3' RNA/DNA template-primer as substrate preincubated for 5 mins followed by substrate addition and measured after 15 mins by phosphorimaging analysis
pIC50: −log10 of the molar value.
pIC50: recorded values

Consider the following illustrative entries.
Compound	pIC50
N#Cc1ccc(S(=O)(=O)N2CCN(C(=O)c3cc(O)c(O)c(O)c3)C(C(=O)NCc3ccc4ccccc4c3)C2)cc1 (centres undefined)	< 4.70
Nc1ccc(S(=O)(=O)N2CCN(C(=O)c3cc(O)c(O)c(O)c3)CC2C(=O)NCc2cccs2)cc1 (centres undefined)	< 4.00
N#Cc1ccc(S(=O)(=O)N2CCN(C(=O)c3cc(O)c(O)c(O)c3)C(C(=O)Nc3ccccc3)C2)cc1 (centres undefined)	< 4.70

Switching to the query record.
Incoming: What value of pIC50 has been reported for the following compound? Nc1ccc(S(=O)(=O)N2CCN(C(=O)c3cc(O)c(O)c(O)c3)CC2C(=O)NCc2cccc3ccccc23)cc1 (centres undefined)
Outgoing: 6.66

====

# System name: Human immunodeficiency virus type 1 reverse transcriptase (Human immunodeficiency virus 1)
# Assay protocol: Inhibition of wild-type recombinant HIV-1 group M subtype B BH10 reverse transcriptase RNase-associated RNase H activity expressed in Escherichia coli XL1 blue at 100 uM using 32P-labeled 5'-[…]-3'/5'-[…]-3' RNA/DNA template-primer as substrate preincubated for 5 mins followed by substrate addition and measured after 15 mins by phosphorimaging analysis relative to control
# Details: time 20.0 min
inhibition: recorded values
Response body: numeric value in %, unit text excluded.

Consider the following illustrative entries.
Molecule	Measure name	Unit string	Value measured
N#Cc1ccc(S(=O)(=O)N2CCN(C(=O)c3cc(O)c(O)c(O)c3)C(C(=O)Nc3ccccc3)C2)cc1 (configuration not stated)	inhibition	%	60.6
COc1ccc(CNC(=O)C2CN(S(=O)(=O)c3ccc(C#N)cc3)CCN2C(=O)c2cc(O)c(O)c(O)c2)cc1 (configuration not stated)	inhibition	%	81.4

Incoming: What value of inhibition has been reported for the following molecule? N#Cc1ccc(S(=O)(=O)N2CCN(C(=O)c3cc(O)c(O)c(O)c3)C(C(=O)NCc3ccco3)C2)cc1 (configuration not stated)
Outgoing: 57.1

Incoming: Next entry: Nc1ccc(S(=O)(=O)N2CCN(C(=O)c3cc(O)c(O)c(O)c3)CC2C(=O)NCc2cccs2)cc1 (configuration not stated)
Outgoing: 39.6

Incoming: Next entry: Nc1ccc(S(=O)(=O)N2CCN(C(=O)c3cc(O)c(O)c(O)c3)C(C(=O)NCc3ccc(-c4ccccc4)cc3)C2)cc1 (configuration not stated)
Outgoing: 47.6

Incoming: Next entry: Nc1ccc(S(=O)(=O)N2CCN(C(=O)c3cc(O)c(O)c(O)c3)C(C(=O)NCc3cccs3)C2)cc1 (configuration not stated)
Outgoing: 45

Incoming: Next entry: N#Cc1ccc(S(=O)(=O)N2CCN(C(=O)c3cc(O)c(O)c(O)c3)C(C(=O)NCc3ccc4ccccc4c3)C2)cc1 (configuration not stated)
Outgoing: 71.9
